Test system: Macrophomina phaseolina
Test: Antifungal activity against Rhizoctonia bataticola at 50 ug/mL after 48 hrs by cup-plate method
Type: functional
result.type: inhibition at 50 µg/mL (%)
Please state the figure in %; there is no need to write the unit.

CCn1cc(C(=O)O)c(=O)c2cc(F)c(N3CCNCC3)cc21 [NORFLOXACIN] = 100
Cc1ccc2c(CNc3ccc(Br)cc3)cc(=O)oc2c1 = 35
Cc1ccc2c(CNc3ccc(F)cc3)cc(=O)oc2c1 = 49
Cc1ccc2c(CNc3ccc(Cl)cc3)cc(=O)oc2c1 = 32
O=c1cc(COc2ccc(F)cc2)c2ccc(Cl)cc2[nH]1 = 72

response.value for Cc1ccc2c(COc3ccc(Cl)cc3)cc(=O)oc2c1 (field: inhibition at 50 µg/mL) = 27

###

The entries below are paired with their reported LD50 at 24 h.
Assay: Acute toxicity in ip dosed albino mouse after 24 hrs
Assay type: organism-based
Conditions: in vivo

Sample answers from the record:
Cc1cccc2c(CNc3ccc(F)cc3)cc(=O)[nH]c12 = > 700 mg/kg
Cc1ccc2c(CNc3ccc(F)cc3)cc(=O)oc2c1 = > 800 mg/kg
O=c1cc(COc2ccc(F)cc2)c2cc(Cl)ccc2o1 = > 700 mg/kg
O=c1cc(CNc2ccc(F)cc2)c2c(ccc3ccccc32)o1 = > 800 mg/kg

response.value for O=c1cc(COc2ccc(F)cc2)c2ccc3ccccc3c2o1 (field: LD50 at 24 h) = > 800 mg/kg

response.value for Cc1ccc2oc(=O)cc(COc3ccc(F)cc3)c2c1 (field: LD50 at 24 h) = > 700 mg/kg

response.value for O=c1cc(COc2ccc(F)cc2)c2ccccc2[nH]1 (field: LD50 at 24 h) = > 800 mg/kg

###

Test system: Macrophomina phaseolina
Assay: Antifungal activity against Rhizoctonia bataticola at 50 ug/mL after 48 hrs by cup-plate method
Type: functional
Conditions: read-out: IZ
The entries below are paired with their reported zone of inhibition at 50 µg/mL.
Please state the figure in mm; there is no need to write the unit.

O=c1cc(COc2ccc(Cl)cc2)c2ccc(Cl)cc2[nH]1 = 78
O=c1cc(COc2ccc(Cl)cc2)c2cc(Cl)ccc2[nH]1 = 84
Cc1ccc2c(CNc3ccc(Br)cc3)cc(=O)oc2c1 = 90
O=c1cc(CNc2ccc(F)cc2)c2ccccc2[nH]1 = 90
Cc1ccc2c(CNc3ccc(Cl)cc3)cc(=O)oc2c1 = 84

response.value for Cc1ccc2c(COc3ccc(Cl)cc3)cc(=O)oc2c1 (field: zone of inhibition at 50 µg/mL) = 75

###

System: Rattus norvegicus
Test: Gastrointestinal toxicity in Wistar rat assessed as ulcerogenic effect at 400 mg/kg, po administered twice at 2 hrs interval after 4 hrs
Type: organism-based
Design: dose 400 mg/kg, route oral
Details: in vivo
The entries below are paired with their reported UI.
Reply with just the number.

Sample answers from the record:
Cc1ccc2c(CNc3ccc(F)cc3)cc(=O)oc2c1 = 64.93
O=c1cc(COc2ccc(F)cc2)c2ccccc2[nH]1 = 60.71
O=c1cc(CNc2ccc(F)cc2)c2cc(Cl)ccc2[nH]1 = 58.57
O=c1cc(COc2ccc(F)cc2)c2cc(Cl)ccc2o1 = 66.66
O=c1cc(COc2ccc(F)cc2)c2ccc3ccccc3c2o1 = 61.8
O=c1cc(COc2ccc(F)cc2)c2ccc(Cl)cc2[nH]1 = 67.5
O=c1cc(COc2ccc(F)cc2)c2cc(Cl)ccc2[nH]1 = 71.42
Cc1ccc2oc(=O)cc(COc3ccc(F)cc3)c2c1 = 57.29

response.value for Cc1cccc2c(CNc3ccc(F)cc3)cc(=O)[nH]c12 (field: UI) = 55.35

response.value for O=c1cc(CNc2ccc(F)cc2)c2ccc(Cl)cc2[nH]1 (field: UI) = 61.42

response.value for O=c1cc(CNc2ccc(F)cc2)c2c(ccc3ccccc32)o1 (field: UI) = 64.93

response.value for O=c1cc(CNc2ccc(F)cc2)c2ccc3ccccc3c2o1 (field: UI) = 64.93

Source of measurements: ChEMBL document CHEMBL1140196
